# target: angiotensin II AT1 receptor
# assay name: Assay A: Angiotensin II binding activity, rat uterine membrane preparation, 125I-AII displacement
pIC50: −log10 of the molar value.

| smiles | pIC50 |
| --- | --- |
| CCCCc1cn(CC2CCCC2)c(=O)n1Cc1ccc(-c2ccccc2-c2nnn[nH]2)nc1 | 7.85 |
| CCCCc1nc(C(=O)Cc2ccccc2)nn1Cc1ccc(-c2ccccc2-c2nnn[nH]2)cc1 | 6.96 |
| CCCCn1nc(-c2ccccc2Cl)nc1Cc1ccc(-c2ccccc2-c2nnn[nH]2)nc1 | 6.82 |
| CCCCc1cn(CCC(C)(C)C)c(=O)n1Cc1ccc(-c2ccccc2-c2nnn[nH]2)nc1 | 7.19 |
| CCCCc1nc(CC23CC4CC(CC(C4)C2)C3)n(Cc2ccc(-c3ccccc3-c3nnn[nH]3)cc2)n1 | 7.08 |
| CCCCc1cn(CCC2=CCCC2)c(=O)n1Cc1ccc(-c2ccccc2-c2nnn[nH]2)nc1 | 7.85 |
